Test system: MCF7 breast
Experiment: NCI-60 one-dose screen, 48 h
Conditions: 10 µM unless noted
Compounds without any hit were thinned out: in the full panel of roughly 83,000, 20% have a hit. The source made the active and inactive calls. The calls were made as follows: active = growth percent below 10; inactive = the rest.
A correct response names exactly one class from TRUE for active, FALSE for inactive

Query :: Answer briefly: the call reported for CCn1cc(C(=O)O)c(=O)c2cc(F)c(N3CCN(S(=O)(=O)c4ccc(Cl)cc4)CC3)cc21 in this assay.
Result :: FALSE

Query :: Answer briefly: the call reported for CC1=C(C)C[C@]2(C(=O)O[C@H]3CCCC[C@@H]32)[S@](=O)C1 in this assay.
Result :: FALSE

Query :: Answer briefly: the call reported for CC(=O)N1N=C(c2ccc(Cl)cc2)CC1c1cn(-c2ccccc2)nc1-c1ccc([N+](=O)[O-])cc1 (stereo unspecified) in this assay.
Result :: FALSE

Query :: Answer briefly: the call reported for COc1ccc(C(O)(c2ccccc2)C(C(=O)O)c2ccccc2)cc1 (stereo unspecified) in this assay.
Result :: FALSE

Query :: Answer briefly: the call reported for Cc1c(CN(C)C)cc(C(C)C)cc1C(C)C in this assay.
Result :: FALSE

Query :: Answer briefly: the call reported for COC(=O)c1c[n+]([O-])ccc1OC in this assay.
Result :: FALSE

Query :: Answer briefly: the call reported for CSC1=Nc2c(c(C)c(-c3ccccc3)n2CCCCl)C2=NC(=O)CN12 in this assay.
Result :: FALSE

Query :: Answer briefly: the call reported for O=C(CCCC(=O)Nc1ccc(Cn2nnc3cc(Cl)c(Cl)cc32)cc1)Nc1ccc(CN2N=NC3C=C(Cl)C(Cl)=CC32)cc1 (stereo unspecified) in this assay.
Result :: FALSE

Query :: Answer briefly: the call reported for COc1ccccc1Cn1cc2c(c1)-c1oncc1CC2 in this assay.
Result :: FALSE

Query :: Answer briefly: the call reported for O=C(N/N=C/c1ccccc1Cl)c1cccc2ccccc12 in this assay.
Result :: FALSE

Query :: Answer briefly: the call reported for CC(C)(C)c1ccc(OCCOC(=O)CBr)cc1 in this assay.
Result :: FALSE

Query :: Answer briefly: the call reported for Cc1nc2ccccc2c(=O)n1-c1cccc(OCc2cn(-c3cccc(O)c3)nn2)c1 in this assay.
Result :: FALSE

Query :: Answer briefly: the call reported for O=C1CCNC1 in this assay.
Result :: FALSE

Query :: Answer briefly: the call reported for CC(=O)Nc1nc(C)c(C(=O)NNC(=O)Nc2ccccc2)s1 in this assay.
Result :: FALSE

Query :: Answer briefly: the call reported for COc1cc(-c2c3c(cn2CCN2CCCCC2)-c2oncc2CC3)cc(OC)c1OC in this assay.
Result :: FALSE

Query :: Answer briefly: the call reported for OCCN1CCCN(CCCN2c3ccccc3Sc3ccc(C(F)(F)F)cc32)CC1 in this assay.
Result :: FALSE

Query :: Answer briefly: the call reported for CCCCCCCCCCC(C[N+](C)(C)C/C=C/c1ccccc1)C(O)c1ccccc1 (stereo unspecified) in this assay.
Result :: TRUE

Query :: Answer briefly: the call reported for CC(=O)O.[In] in this assay.
Result :: FALSE

Query :: Answer briefly: the call reported for CC[C@@H](C)/C=C(C)/C=C/C(=O)c1c(O)c(-c2ccc(OC(=O)[C@@]34CC[C@@](C)(C(=O)O3)C4(C)C)cc2)cn(O)c1=O in this assay.
Result :: FALSE

Query :: Answer briefly: the call reported for O=C(/C=C\c1ccccc1Cl)c1ccccc1 in this assay.
Result :: FALSE

Query :: Answer briefly: the call reported for N#Cc1ccc(NC2c3ccccc3CC2O)cc1 (stereo unspecified) in this assay.
Result :: FALSE

Query :: Answer briefly: the call reported for CCCCCCNC(=O)Oc1ccc(/C(=C(/C)Cc2ccc(OC)cc2)c2ccc(OCCN3CCCCC3)cc2)cc1 in this assay.
Result :: FALSE

Query :: Answer briefly: the call reported for COc1cc(-c2nn(-c3ccc(NC(=O)Nc4ccc(Cl)c(C(F)(F)F)c4)cc3)cc2-c2ccncc2)ccc1Cl in this assay.
Result :: TRUE

Query :: Answer briefly: the call reported for Cc1nnc(/N=C2\NC(=O)/C(=C/C=C/c3ccccc3)S2)s1 in this assay.
Result :: FALSE

Query :: Answer briefly: the call reported for COc1ccc(-c2cn3ccnc3c(-c3ccc4ncn(C5CCCCC5)c4c3)n2)cc1 in this assay.
Result :: FALSE

Query :: Answer briefly: the call reported for CCCCCCC(C(=O)OCC)(C(=O)OCC)C1CCCCCC1 in this assay.
Result :: FALSE
